Numbers sourced from patent US20220106289A1.

Entries and their IC50
target: NLRP3 (Homo sapiens); test: THP-1 cells pyroptosis assay (LPS + nigericin, resazurin read-out); assay type: cell-based; design: Seed THP-1 cells (25,000 cells/well) containing 1.0 μg/ml LPS; host or cells: THP-1 cells; conditions: NLRP3 inhibitory activity, 1 μg/ml LPS, 5 μM nigericin
Sequence (Q96P20 whole entry): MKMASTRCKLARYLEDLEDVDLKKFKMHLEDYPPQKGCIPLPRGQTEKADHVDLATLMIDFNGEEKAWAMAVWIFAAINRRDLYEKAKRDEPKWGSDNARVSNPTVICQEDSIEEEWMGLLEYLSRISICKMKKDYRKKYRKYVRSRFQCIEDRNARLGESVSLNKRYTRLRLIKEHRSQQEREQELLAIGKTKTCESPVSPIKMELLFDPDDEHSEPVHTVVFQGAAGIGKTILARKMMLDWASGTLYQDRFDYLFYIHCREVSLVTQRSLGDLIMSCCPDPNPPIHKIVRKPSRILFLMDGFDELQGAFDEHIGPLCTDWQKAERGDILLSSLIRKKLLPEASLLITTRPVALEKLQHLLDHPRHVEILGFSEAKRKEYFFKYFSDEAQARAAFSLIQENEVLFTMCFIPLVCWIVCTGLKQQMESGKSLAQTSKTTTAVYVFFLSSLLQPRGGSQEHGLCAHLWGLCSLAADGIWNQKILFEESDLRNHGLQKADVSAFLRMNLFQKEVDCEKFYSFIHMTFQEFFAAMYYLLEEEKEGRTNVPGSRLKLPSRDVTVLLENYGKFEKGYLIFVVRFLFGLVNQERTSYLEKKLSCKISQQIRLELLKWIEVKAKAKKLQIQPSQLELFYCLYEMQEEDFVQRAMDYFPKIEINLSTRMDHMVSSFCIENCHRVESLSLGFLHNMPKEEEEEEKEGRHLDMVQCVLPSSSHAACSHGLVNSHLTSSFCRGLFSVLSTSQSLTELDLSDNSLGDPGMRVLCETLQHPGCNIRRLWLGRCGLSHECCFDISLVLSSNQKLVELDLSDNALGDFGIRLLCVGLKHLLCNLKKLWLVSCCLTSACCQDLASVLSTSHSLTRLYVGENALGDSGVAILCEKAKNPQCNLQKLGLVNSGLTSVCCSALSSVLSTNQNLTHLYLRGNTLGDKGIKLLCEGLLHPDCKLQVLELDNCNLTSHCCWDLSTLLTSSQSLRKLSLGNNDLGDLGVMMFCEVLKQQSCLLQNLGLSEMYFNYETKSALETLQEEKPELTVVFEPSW
Where a name gives a salt, the structure may show the parent alone.

Problem: # lookup: IC50 of CC(C)n1ccc(S(=O)(=O)NC(=O)Nc2c3c(c(F)c4c2CCC4)CCC3)n1 [Example 61, sodium salt]
Result: < 0.25 µM

Next:
Problem: Form field: reported IC50 of CCn1ccc(S(=O)(=O)NC(=O)Nc2c3c(cc4c2CCC4)CCC3)n1 [Example 45, sodium salt]
Result: < 0.25 µM

Problem: Which measured IC50 value corresponds to CC(C)c1cccc(O[C@@H]2CCOC2)c1NC(=O)NS(=O)(=O)c1ccn(C(C)C)n1 [Example 85] ?
Result: 5 to 10 µM

Problem: Which IC50 reading was recorded for the compound CN(C)CC1(n2ccc(S(=O)(=O)NC(=O)Nc3c4c(cc5c3CCC5)CCC4)n2)CCC1 [Example 60] ?
Result: < 0.25 µM
